Chromogenic IC50 ratio rat/human overview
Molecular target: T1, rat PAI-1 (rat, UniProt P20961 24-402)
T1 sequence: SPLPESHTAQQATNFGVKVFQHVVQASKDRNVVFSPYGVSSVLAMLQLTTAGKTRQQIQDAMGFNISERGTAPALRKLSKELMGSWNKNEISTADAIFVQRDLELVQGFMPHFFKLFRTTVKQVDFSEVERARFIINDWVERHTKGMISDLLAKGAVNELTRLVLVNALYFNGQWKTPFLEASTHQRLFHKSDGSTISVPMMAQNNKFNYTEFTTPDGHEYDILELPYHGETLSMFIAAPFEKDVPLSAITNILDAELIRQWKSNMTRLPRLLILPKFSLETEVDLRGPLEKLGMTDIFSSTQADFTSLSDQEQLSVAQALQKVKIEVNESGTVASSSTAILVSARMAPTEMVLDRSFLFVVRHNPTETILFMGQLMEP
Test: cell-based or functional assay
# output: bare number, implied unit fold

binder: Antibody 24 scFv (scFv) QVQLQQSGAEVKKPGSSVKVSCKASGGTFSSYAISWVRQAPGQGLEWMGGIIPTFVTANYAQKFQGRVSITADESTSTAYMELSGLRSEDTAVYYCAREKRQWLEGHFDYWGRGTPVTVSSDIQMTQSPSFLSASIGDRVTITCRASEGIYHALAWYQQKPGKAPKLLIYRASSLASGAPSRFSGSGSGTDFTLTISSLQPDDFATYYCQQYSNYPLTFGGGTKLEIK
unitsSymbol: fold
Chromogenic IC50 ratio rat/human: 39.3
//
binder: Antibody 11 scFv (scFv) QVQLQQSGAEVKKPGSSVKVSCKASGGTFSSYAISWMRQAPGQGLEWMGGIIPIFGTANYAQKFQGRVTITADESTSTAYMELSGLRSEDTAVYYCAREKRQWLEGHFDYWGRGTPVTVSSDIQMIQSPSFLSASTGDRVTITCQASEGIYHELAWYQQKPGKAPKLLIYRASSLASGAPSRFSGSGSGTDFTLTISSLQPDDFATYYCQQYSNYPLTFGGGTKLEIK
unitsSymbol: fold
Chromogenic IC50 ratio rat/human: 0.6

## Task Which measured Chromogenic IC50 ratio rat/human value corresponds to Antibody 27 IgG1, not germlined (antibody, V domains shown, IgG1; also called Ab 27) VH: QVQLQQSGAEVKKPGSSVKVSCKASGGAFSSYAISWVRQAPGQGLEWMGGIIPTFGTANYAQKFQGRVTITADESTSTAYMELSGLRSEDTAVYYCAREKRQWLEGHFDYWGRGTPVTVSS VL: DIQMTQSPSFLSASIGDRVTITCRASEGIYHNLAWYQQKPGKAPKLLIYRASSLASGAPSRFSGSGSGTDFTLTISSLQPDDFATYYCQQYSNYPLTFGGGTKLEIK ?
## Result 5.4
